Below is a list of entries, each paired with its recorded CC50 at 48 h value.
- assay.remarks: Cytotoxicity against human HEK293T cells assessed as reduction in cell viability measured after 48 hrs by MTT assay
- Assay type: cell-based, HEK-293T
Form entry: value (µg/mL) — number only.

The following compounds have reported results that may help.
{"columns": ["chem.smiles", "measured.quantity", "scale.unit", "experimental.result"],
 "data": [
  ["O=C(NCc1ccc(-c2noc(-c3ccc([N+](=O)[O-])s3)n2)cc1)c1ccc([N+](=O)[O-])s1", "CC50 at 48 h", "µg/mL", 126],
  ["COc1cc(CNC(=O)c2ccc([N+](=O)[O-])s2)ccc1OC(=O)c1ccc([N+](=O)[O-])s1", "CC50 at 48 h", "µg/mL", 61],
  ["O=C(NCc1ccc(OC(=O)c2ccc([N+](=O)[O-])s2)cc1)c1ccc([N+](=O)[O-])s1", "CC50 at 48 h", "µg/mL", 251]
]}

Query compound follows.
Problem: Would you mind telling me what CC50 at 48 h value was observed for Cc1cc(CNC(=O)c2ccc([N+](=O)[O-])s2)ccc1OC(=O)c1ccc([N+](=O)[O-])s1 ?
Solution: 168
